Listed below: melting point values for each entry.
observation.type: melting point

> print(dat)
                            compound.smiles  observation.type           reported
 1        FC(F)c1cccc(C#CCCn2nc3ccccc3n2)n1     melting point  101.8 to 102.9 °C
 2             Cc1csc(C#CCCn2nc3ccccc3n2)n1     melting point        78 to 80 °C
 3      Cc1ccc(F)cc1-c1noc(CCC#Cc2ccccn2)n1     melting point        90 to 91 °C
 4            Cc1nc(C#CCCc2nc3ccccc3o2)cn1C     melting point      117 to 119 °C
 5             O=C(CCC#Cc1ccccn1)Nc1ccccc1F     melting point        82 to 84 °C
 6         Fc1cc(F)c2oc(CCC#Cc3ccccn3)nc2c1     melting point      93.5 to 94 °C
 7   FCc1cccc(C#CCCn2cc(-c3ccc(F)cc3)nn2)n1     melting point      100 to 103 °C
 8       Fc1ccc(-c2cn(CCC#Cc3ccccn3)nn2)cc1     melting point      120 to 122 °C
 9          Cc1nc(C#CCCc2nc3ccccc3o2)c[nH]1     melting point      152 to 154 °C
10          O=C(CCC#Cc1ccccn1)Nc1ccc(Cl)cc1     melting point      110 to 111 °C
11   FCc1cccc(C#CCCn2ncc(-c3ccc(F)cc3)n2)n1     melting point        84 to 86 °C
12  C(#Cc1ccccn1)CCc1nc(-c2ccc3ccccc3c2)no1     melting point        76 to 78 °C
13           O=C(CCC#Cc1ccccn1)Nc1ccc(F)cc1     melting point  189.9 to 190.2 °C
14       Fc1ccc(-c2cc(CCC#Cc3ccccn3)on2)cc1     melting point        83 to 84 °C
15    FCc1cccc(C#CCCc2cnc3cc(F)c(F)cc3n2)n1     melting point  134.9 to 138.5 °C
16     FCc1cccc(C#CCCn2nc3cc(F)c(F)cc3n2)n1     melting point      104 to 105 °C
17     Cc1ccc(Cl)cc1-c1noc(CCC#Cc2ccccn2)n1     melting point        66 to 68 °C
18          N#Cc1cccc2nc(CCC#Cc3ccccn3)oc12     melting point    126 to 126.5 °C
19          O=C(CCC#Cc1ccccn1)Nc1cccc(Cl)c1     melting point  167.8 to 168.8 °C
20        Cl.FCc1cccc(C#CCCn2nc3ccccc3n2)n1     melting point  172.5 to 173.5 °C
21              Fc1ccc(C#CCCC#Cc2ccccn2)cc1     melting point        68 to 69 °C

====

observation.type: melting point

> print(dat)
                            compound.smiles  observation.type           reported
 1  Clc1ccc(-c2noc(CCC#Cc3ccccn3)n2)c(Cl)c1     melting point        77 to 78 °C
 2        C(#Cc1ccccn1)CCn1nnc(-c2ccccc2)n1     melting point        71 to 73 °C
 3           Clc1ccc2nc(CCC#Cc3ccccn3)oc2c1     melting point  101.5 to 102.2 °C
 4               Cc1nc(C#CCCc2ccccc2)c[nH]1     melting point      124 to 126 °C
 5           O=c1n(CCC#Cc2ccccn2)nc2ccccn12     melting point      95.5 to 96 °C
 6       O=c1n(CCC#Cc2cccc(CF)n2)nc2ccccn12     melting point      106 to 107 °C
 7           FCc1cccc(C#CCCc2nc3ccccc3s2)n1     melting point        74 to 76 °C
 8        FCc1cccc(C#CCCc2cn3cc(F)ccc3n2)n1     melting point    140 to 141.8 °C
 9  Cl.FCc1cccc(C#CCCn2nc3cc(F)cc(F)c3n2)n1     melting point      128 to 130 °C
10      CC(=O)Nc1cccc(C#CCCn2nc3ccccc3n2)n1     melting point        93 to 94 °C

====

system.under.test: mGluR5 (Rattus norvegicus)
Sequence (P31424 21-1203): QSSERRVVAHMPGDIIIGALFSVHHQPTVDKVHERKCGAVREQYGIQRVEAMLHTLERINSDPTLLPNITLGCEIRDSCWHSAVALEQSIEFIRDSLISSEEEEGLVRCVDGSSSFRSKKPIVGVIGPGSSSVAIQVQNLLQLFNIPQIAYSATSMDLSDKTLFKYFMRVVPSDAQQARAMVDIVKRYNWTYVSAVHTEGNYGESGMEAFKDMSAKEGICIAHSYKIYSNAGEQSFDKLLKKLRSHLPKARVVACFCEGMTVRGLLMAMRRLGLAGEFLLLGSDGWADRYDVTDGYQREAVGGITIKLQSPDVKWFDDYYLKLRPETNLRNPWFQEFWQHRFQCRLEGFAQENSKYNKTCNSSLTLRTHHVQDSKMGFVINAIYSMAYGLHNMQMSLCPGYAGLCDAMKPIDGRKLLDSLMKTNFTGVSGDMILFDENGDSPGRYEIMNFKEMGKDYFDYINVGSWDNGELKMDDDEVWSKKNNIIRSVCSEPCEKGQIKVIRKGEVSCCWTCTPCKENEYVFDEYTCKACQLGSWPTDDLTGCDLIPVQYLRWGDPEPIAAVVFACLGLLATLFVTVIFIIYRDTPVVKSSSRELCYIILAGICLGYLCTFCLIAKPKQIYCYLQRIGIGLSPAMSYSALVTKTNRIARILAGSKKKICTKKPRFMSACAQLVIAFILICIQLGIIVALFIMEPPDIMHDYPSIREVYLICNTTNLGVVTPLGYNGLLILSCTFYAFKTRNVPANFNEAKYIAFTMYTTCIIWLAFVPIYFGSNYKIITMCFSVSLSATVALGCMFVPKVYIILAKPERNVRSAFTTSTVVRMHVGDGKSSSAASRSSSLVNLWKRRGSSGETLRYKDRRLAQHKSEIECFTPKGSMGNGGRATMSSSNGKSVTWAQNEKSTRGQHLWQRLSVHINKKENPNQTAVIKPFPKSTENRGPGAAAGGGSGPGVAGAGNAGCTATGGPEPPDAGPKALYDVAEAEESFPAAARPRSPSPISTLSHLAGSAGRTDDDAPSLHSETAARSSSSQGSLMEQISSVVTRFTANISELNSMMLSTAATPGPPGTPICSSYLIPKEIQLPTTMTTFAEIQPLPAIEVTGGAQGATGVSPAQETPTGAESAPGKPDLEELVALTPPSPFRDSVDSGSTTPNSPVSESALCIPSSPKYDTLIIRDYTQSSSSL
Listed below: IC50 values for each entry.
observation.type: IC50

> print(dat)
                                   compound           system.under.test  observation.type   reported
1            O=C(CCC#Cc1ccccn1)Nc1ccc(F)cc1  mGluR5 (Rattus norvegicus)              IC50     < 1 µM
2              O=C(CCC#Cc1ccccn1)Nc1ccccc1F  mGluR5 (Rattus norvegicus)              IC50    < 10 µM
3       Cc1nc(C#CCCc2nc3cc(F)cc(Cl)c3o2)cs1  mGluR5 (Rattus norvegicus)              IC50  < 0.05 µM
4  Cl.FCc1cccc(C#CCCn2nc3ccc(F)c(F)c3n2)n1 [Example 132, hydrochloride]  mGluR5 (Rattus norvegicus)              IC50  < 0.05 µM
5         CC(C)c1cccc2nc(CCC#Cc3ccccn3)oc12  mGluR5 (Rattus norvegicus)              IC50    < 10 µM

====

system.under.test: mGluR5 (Rattus norvegicus)
pIC50: −log10 of the molar value.
observation.type: pIC50

> print(dat)
                                    compound  reported
 1  CN(C(=O)CCC#Cc1ccccn1)c1cccc(Cl)c1 [Example 99]    > 5.00
 2  Cn1c(CCC#Cc2ccccn2)nc2cc(F)ccc21 [Example 197]    > 5.00
 3  Cc1ccc(C)c(-c2noc(CCC#Cc3ccccn3)n2)c1 [Example 54]    > 5.00
 4  Cc1nc(C#CCCc2nc3ccccc3o2)cn1C [Example 233]    > 5.00
 5  Cc1cccc(-c2noc(CCC#Cc3ccccn3)n2)c1 [Example 43]    > 5.00
 6  Cl.FCc1cccc(C#CCCn2nc3ccccc3n2)n1 [Example 130, hydrochloride]    > 7.30
 7  Cc1nc(C#CCCc2nc3ccccc3o2)cs1 [Example 31]    > 7.30
 8  O=C(CCC#Cc1ccccn1)Nc1cccc(Cl)c1 [Example 245]    > 5.00
 9  Fc1ccccc1Cc1noc(CCC#Cc2ccccn2)n1 [Example 17]    > 5.00
10  Fc1cc(F)c2oc(CCC#Cc3ccccn3)nc2c1 [Example 89]    > 7.30

====

Each entry below carries its measured IC50, system: UniProt P31424.
observation.type: IC50

> print(dat)
                             compound.smiles  system.under.test  observation.type   reported
 1  FCc1cccc(C#CCCc2cn3cccc(OCc4ccccc4)c3n2)n1     UniProt P31424              IC50    < 10 µM
 2   Clc1ccc(Cl)c(-c2noc(CCC#Cc3ccccn3)n2)c1     UniProt P31424              IC50    < 10 µM
 3         FCc1cccc(C#CCCn2nc3ccc(F)cc3n2)n1     UniProt P31424              IC50  < 0.05 µM
 4             Cc1cccn2cc(CCC#Cc3ccccn3)nc12     UniProt P31424              IC50    < 10 µM
 5     Clc1cccc(-c2noc(CCC#Cc3ccccn3)n2)c1Cl     UniProt P31424              IC50    < 10 µM
 6   FC(F)(F)c1ccccc1-c1noc(CCC#Cc2ccccn2)n1     UniProt P31424              IC50    < 10 µM
 7   C(#Cc1ccccn1)CCc1nc2c(-c3ccccc3)cccc2o1     UniProt P31424              IC50    < 10 µM
 8           Cc1ccccc1C(=O)N(C)CCC#Cc1ccccn1     UniProt P31424              IC50    < 10 µM
 9          Fc1ccccc1-c1noc(CCC#Cc2ccccn2)n1     UniProt P31424              IC50   < 0.5 µM
10        CN(CCC#Cc1ccccn1)C(=O)c1cccc(Cl)c1     UniProt P31424              IC50    < 10 µM

====

Listed below: melting point values for each entry.
observation.type: melting point

> print(dat)
                            compound.smiles  observation.type         reported
 1            Cc1nc(C#CCCn2nc3ccccc3n2)sc1C     melting point      96 to 98 °C
 2            Fc1ccc2oc(CCC#Cc3ccccn3)nc2c1     melting point  100.1 to 101 °C
 3           Clc1cccn2cc(CCC#Cc3ccccn3)nc12     melting point    106 to 107 °C
 4        O=C1c2ccccc2C(=O)N1CCCC#Cc1ccccn1     melting point    127 to 129 °C
 5  Cl.FCc1cccc(C#CCCn2nc3ccc(F)c(F)c3n2)n1     melting point    157 to 159 °C
 6      Cc1cc(F)ccc1NC(=O)CCC#Cc1cccc(CF)n1     melting point    122 to 125 °C
 7             O=C1c2ccccc2CN1CCC#Cc1ccccn1     melting point      94 to 98 °C
 8          CCNc1cccc(C#CCCn2nc3ccccc3n2)n1     melting point      73 to 78 °C
 9           CN(C(=O)CCC#Cc1ccccn1)c1ccccc1     melting point      68 to 71 °C
10       Fc1ccc(-c2cnn(CCC#Cc3ccccn3)n2)cc1     melting point  83.5 to 84.5 °C
